# subject.of.test: Phosphatidylinositol 4,5-bisphosphate 3-kinase catalytic subunit beta isoform (Homo sapiens, UniProt P42338)
# Sequence (P42338 whole entry, canonical isoform): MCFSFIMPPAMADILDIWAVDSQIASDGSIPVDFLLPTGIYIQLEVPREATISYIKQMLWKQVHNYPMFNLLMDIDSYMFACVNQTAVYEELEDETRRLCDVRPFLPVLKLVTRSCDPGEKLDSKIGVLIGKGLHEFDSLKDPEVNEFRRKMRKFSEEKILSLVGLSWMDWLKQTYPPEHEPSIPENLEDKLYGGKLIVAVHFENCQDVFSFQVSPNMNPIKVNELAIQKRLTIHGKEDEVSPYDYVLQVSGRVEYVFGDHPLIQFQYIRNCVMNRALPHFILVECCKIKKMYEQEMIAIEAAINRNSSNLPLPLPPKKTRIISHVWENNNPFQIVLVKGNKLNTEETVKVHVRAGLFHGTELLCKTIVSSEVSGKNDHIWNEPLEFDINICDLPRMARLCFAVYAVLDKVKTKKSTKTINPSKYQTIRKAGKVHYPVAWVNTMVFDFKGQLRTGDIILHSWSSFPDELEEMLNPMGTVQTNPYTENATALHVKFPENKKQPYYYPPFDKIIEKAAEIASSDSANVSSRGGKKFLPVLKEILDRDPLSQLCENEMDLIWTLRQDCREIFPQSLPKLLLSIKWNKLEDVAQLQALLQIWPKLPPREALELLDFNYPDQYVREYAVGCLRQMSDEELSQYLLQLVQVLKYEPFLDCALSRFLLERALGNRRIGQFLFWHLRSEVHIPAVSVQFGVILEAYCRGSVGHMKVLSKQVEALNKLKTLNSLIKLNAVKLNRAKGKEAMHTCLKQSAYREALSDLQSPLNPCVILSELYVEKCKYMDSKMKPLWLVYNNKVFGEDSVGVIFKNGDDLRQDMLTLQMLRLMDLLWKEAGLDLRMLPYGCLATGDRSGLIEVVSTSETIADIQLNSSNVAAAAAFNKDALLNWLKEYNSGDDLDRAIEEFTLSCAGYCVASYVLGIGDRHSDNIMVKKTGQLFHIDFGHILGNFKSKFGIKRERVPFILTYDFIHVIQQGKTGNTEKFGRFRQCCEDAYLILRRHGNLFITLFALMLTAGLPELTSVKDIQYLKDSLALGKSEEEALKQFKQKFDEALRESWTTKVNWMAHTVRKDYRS
# procedure.summary: Inhibition of human recombinant PI3Kbeta assessed as PIP3 production by AlphaScreen assay
# Lookup of reported IC50 keyed by entry
reported.metric: IC50

INSERT INTO assay_data (compound, value_measured) VALUES
  ('Cc1cc(C(C)Nc2ccccc2S(=O)(=O)O)c2nc(N3CCOCC3)cc(=O)n2c1 (centres undefined)', '30 nM'),
  ('CC(Oc1ccccc1F)c1cc(C(=O)N(C)CCO)cn2c(=O)cc(N3CCOCC3)nc12 (centres undefined)', '660 nM'),
  ('Cc1cc(OC(C)c2cc(C(=O)N(C)CCO)cn3c(=O)cc(N4CCOCC4)nc23)ccc1F (centres undefined)', '200 nM'),
  ('CC(Nc1ccccc1)c1cc(C(=O)N2CCOCC2)cn2c(=O)cc(N3CCOCC3)nc12 (centres undefined)', '140 nM'),
  ('Cc1cc(C(C)Nc2ccccc2-c2nnn[nH]2)c2nc(N3CCOCC3)cc(=O)n2c1 (centres undefined)', '51 nM'),
  ('Cc1cc(C(C)Nc2cc(Cl)ccc2C(=O)O)c2nc(N3CCOCC3)cc(=O)n2c1 (centres undefined)', '31 nM'),
  ('CC(Nc1ccccc1)c1cc(C(=O)O)cn2c(=O)cc(N3CCOCC3)nc12 (centres undefined)', '59 nM'),
  ('Cc1cc(C(C)Nc2cccc(C(=O)O)c2)c2nc(N3CCOCC3)cc(=O)n2c1 (centres undefined)', '4800 nM'),
  ('CC(Oc1cccc(C#N)c1)c1cc(C(=O)N(C)CCO)cn2c(=O)cc(N3CCOCC3)nc12 (centres undefined)', '1700 nM');
